# target-of-assay: IL33 and ST2 binding (Homo sapiens, UniProt O95760);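 further: plate ELISA with coated Flag-tagged human IL-33 and His-tagged human ST2, bound ST2 detected by anti-His HRP and TMB absorbance at 450 nm, 2 h compound incubation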
# Sequence (O95760 112-270 limits assumed): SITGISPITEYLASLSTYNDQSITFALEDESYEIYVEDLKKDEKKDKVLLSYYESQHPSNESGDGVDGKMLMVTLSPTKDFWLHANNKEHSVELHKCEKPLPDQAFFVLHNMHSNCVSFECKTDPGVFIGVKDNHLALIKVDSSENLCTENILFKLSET
# particulars: 100 µM
recorded-metric: inhibition (%)

A selection of reference data follows.
- compound-structure-string: "CN1CCN(CCNC(=O)c2nc(-c3ccccc3C(F)(F)F)oc2-c2ccccc2)CC1"
  unit-label: "%"
  inhibition: 36
- compound-structure-string: "CN1CCN(CCNC(=O)c2nc(-c3ccc(Cl)cc3)oc2-c2ccccc2[N+](=O)[O-])CC1"
  unit-label: "%"
  inhibition: 32
- compound-structure-string: "CN1CCN(CCNC(=O)c2nc(-c3ccc(C4CC4)cc3)oc2-c2ccccc2)CC1"
  unit-label: "%"
  inhibition: 0
- compound-structure-string: "CN1CCN(CCNC(=O)c2nc(-c3cccc(F)c3)oc2-c2ccccc2)CC1"
  unit-label: "%"
  inhibition: -21
- compound-structure-string: "CN1CCN(CCNC(=O)c2nc(-c3ccc(F)cc3)oc2-c2ccccc2[N+](=O)[O-])CC1"
  unit-label: "%"
  inhibition: -28
- compound-structure-string: "CN1CCN(CCNC(=O)c2nc(-c3ccccc3C(F)(F)F)oc2-c2ccccc2[N+](=O)[O-])CC1"
  unit-label: "%"
  inhibition: 40
- compound-structure-string: "COCCNC(=O)c1nc(-c2ccc(C(F)(F)F)cc2)oc1-c1cccc(SC)c1"
  unit-label: "%"
  inhibition: 107
- compound-structure-string: "CN(C)CCNC(=O)c1nc(-c2cccc(Cl)c2)oc1-c1ccccc1[N+](=O)[O-]"
  unit-label: "%"
  inhibition: -12

P = CCOC(=O)c1nc(-c2ccc(-c3ccccc3)cc2)oc1-c1ccccc1
Q = CN1CCN(CCNC(=O)c2nc(-c3ccc(F)cc3)oc2-c2ccccc2)CC1
R = CN1CCN(CCNC(=O)c2nc(-c3cccc(Cl)c3)oc2-c2ccccc2)CC1
S = CSc1ccc(-c2nc(C(=O)NCCN(C)C)c(-c3ccccc3[N+](=O)[O-])o2)cc1
# input // ascending sort on recorded inhibition Provide the labels, sequenced as the question asks.
# output S, Q, R, P
(S: -18%, Q: 7%, R: 38%, P: 109%)
